Biological target: T1, recombinant soluble human IL-6 receptor (SR344) (human, UniProt P08887 20-344, biotinylated (sites not given) where immobilized via streptavidin or used in phage ELISA)
T1 construct: also called soluble IL-6 receptor; membrane-type IL-6 receptor (when biotinylated and immobilized on the chip)
T1 sequence (looked up): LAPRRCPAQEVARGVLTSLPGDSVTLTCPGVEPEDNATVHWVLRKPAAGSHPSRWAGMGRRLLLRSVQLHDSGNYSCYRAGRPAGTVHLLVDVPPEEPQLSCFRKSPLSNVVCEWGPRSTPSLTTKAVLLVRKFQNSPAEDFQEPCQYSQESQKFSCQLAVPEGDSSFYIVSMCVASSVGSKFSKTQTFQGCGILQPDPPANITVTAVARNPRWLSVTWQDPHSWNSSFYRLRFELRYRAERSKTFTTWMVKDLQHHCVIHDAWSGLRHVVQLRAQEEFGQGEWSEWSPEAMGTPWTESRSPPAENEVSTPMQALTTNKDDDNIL
Experiment: SPR Biacore T100, antibody on protein A/G chip, SR344 analyte, 37 C, ratio of pH 5.8 to pH 7.4
measuredProperty: KD (pH 5.8)/KD (pH 7.4)
// return a plain number; no unit text

H3pI/L73 (antibody, IgG1, V domains shown, tested as IgG1; also called H3pI/L73-IgG1; H3pl/L73) VH: QVQLQESGPGLVKPSETLSLTCAVSGHSISHDHAHSWVRQPPGEGLEWIGYISYSGITNYNPSLKGRVTISRDTSKNQFSLKLSSVTAADTAAYYCARSLARTTAMDYWGEGTLVTVSS VL: DIQMTQSPSSLSASVGDSVTITCQASQHISSHLNWYQQKPGKAPELLIYYGSHLHSGVPSRFSGSGSGTDFTFTISSLEAEDAATYYCGQGNRLPYTFGQGTKVEIE : 41.3
CLH5/L73 (antibody, IgG1, V domains shown, expressed and purified as IgG) VH: QVQLQESGPGLVKPSETLSLTCAVSGYSISHDHAWSWVRQPPGEGLEWIGHISYSGITNYNPHLKGRVTISRDTSKNQFSLKLSSVTAADTAAYYCARFLARITAHDHWGEGTLVTVSS VL: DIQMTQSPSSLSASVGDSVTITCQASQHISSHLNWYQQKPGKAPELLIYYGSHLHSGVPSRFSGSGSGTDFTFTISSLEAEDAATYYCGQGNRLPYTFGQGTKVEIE : 66.1

Inquiry: Look up KD (pH 5.8)/KD (pH 7.4) of H170/L82 (antibody, IgG1, V domains shown, expressed and purified as IgG (IgG1); also called H170/L82-IgG1) VH: QVQLQESGPGLVKPSETLSLTCAVSGHSISHHHAHSWVRQPPGEGLEWIGYISYSGITHYNPHLKGRVTISRDTSKNQFSLKLSSVTAADTAAYYCARVLARITAMDHWGEGTLVTVSS VL: DIQMTQSPSSLSASVGDSVTITCQASQDISSHLNWYQQKPGKAPELLIYYGSHLHSGVPSRFSGSGSGTDFTFTISSLEAEDAATYYCGQGNRLPYTFGQGTKVEIE and report it.
Reply text: 394

Inquiry: Look up KD (pH 5.8)/KD (pH 7.4) of humanized PM1 antibody (wild type, WT) (antibody, human IgG1, kappa, V domains shown, IgG1; also called WT-IgG1; wild type humanized anti-IL-6 receptor antibody) VH: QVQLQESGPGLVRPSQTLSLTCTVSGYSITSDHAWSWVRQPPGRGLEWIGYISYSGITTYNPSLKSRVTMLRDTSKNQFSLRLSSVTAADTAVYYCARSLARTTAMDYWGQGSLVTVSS VL: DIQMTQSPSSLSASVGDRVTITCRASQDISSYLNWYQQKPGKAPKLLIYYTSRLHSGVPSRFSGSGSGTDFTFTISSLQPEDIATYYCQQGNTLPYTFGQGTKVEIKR and report it.
Reply text: 2.4
